Assay: activity coefficient (dimensionless); of the first substance listed, at infinite dilution; xn = mol fraction of the nth substance listed
Details: 323.2 K; 101 kPa; Liquid; Chromatography; x1 = 0

- Molecule: "CC1CCCCC1 [methylcyclohexane] + CCCC[n+]1ccccc1.O=S(=O)([N-]S(=O)(=O)C(F)(F)F)C(F)(F)F"
  activity coefficient: 11.6
- Molecule: "C#CCCCCC [1-heptyne] + CCCC[n+]1ccccc1.O=S(=O)([N-]S(=O)(=O)C(F)(F)F)C(F)(F)F"
  activity coefficient: 5.29
- Molecule: "c1ccccc1 [benzene] + CC[n+]1ccccc1.O=S(=O)([N-]S(=O)(=O)C(F)(F)F)C(F)(F)F"
  activity coefficient: 1.47
- Molecule: "CCCCCCC [heptane] + CCCC[n+]1ccccc1.O=S(=O)([N-]S(=O)(=O)C(F)(F)F)C(F)(F)F"
  activity coefficient: 16.8
- Molecule: "c1ccccc1 [benzene] + CCCCC[n+]1ccccc1.O=S(=O)([N-]S(=O)(=O)C(F)(F)F)C(F)(F)F"
  activity coefficient: 1.01
- Molecule: "CCCO [propan-1-ol] + CCCC[n+]1ccccc1.O=S(=O)([N-]S(=O)(=O)C(F)(F)F)C(F)(F)F"
  activity coefficient: 2.52
- Molecule: "C=CCCCCCC [oct-1-ene] + CCCC[n+]1ccccc1.O=S(=O)([N-]S(=O)(=O)C(F)(F)F)C(F)(F)F"
  activity coefficient: 18.4

The measurements presented in this section are drawn from the NIST ThermoML archive (doi:10.1016/j.jct.2010.06.009).
